The reported numbers originate from ChEMBL document CHEMBL1821631.

A collection of compounds and their measured pIC50
# experimental-target: CDGSH iron-sulfur domain-containing protein 1 (Homo sapiens)
# Sequence (Q9NZ45 whole entry): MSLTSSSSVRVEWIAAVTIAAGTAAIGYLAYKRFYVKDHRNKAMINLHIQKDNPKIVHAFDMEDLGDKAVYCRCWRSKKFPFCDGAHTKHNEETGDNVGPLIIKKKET
# test-summary: Displacement of [3H]-rosiglitazone from human recombinant C-terminal His-tagged cytosolic domain of mitoNEET (32-108) by scintillation proximity assay
Note: pIC50 values are expressed as the negative base-10 logarithm of concentration in M.

Query: Would you kindly share the measured pIC50 for `O=C1NC(=S)S/C1=C/c1ccncc1` ?
Result: 5.22

Query: Would you kindly share the measured pIC50 for `O=C(/C=C1/SC(=O)NC1=O)Nc1ccccc1` ?
Result: 4.96
